These entries and their values trace back to ChEMBL document CHEMBL2417366.

# System: Mycolicibacterium fortuitum
# testMethodNotes: Antibacterial activity against Mycobacterium fortuitum PCM 672 assessed as growth inhibition up to 250 ug/mL after 48 hrs by microplate Alamar blue assay
# Assay type: functional, organism-based
Activity calls are given as the source filed them. The rule behind the calls is not given here.
endpoint: growth inhibition (GI)

Field: example entries. Status: answers known.
structureString: Cc1cc(C)c2c(=O)n(CCN3CCN(c4ccc([N+](=O)[O-])cc4)CC3)sc2n1
growth inhibition (GI): inactive

structureString: Cc1cc(C)c2c(OCCOC(=O)Nc3ccccc3)nsc2n1
growth inhibition (GI): inactive

structureString: CCCCNC(=O)OCCOc1nsc2nc(C)cc(C)c12
growth inhibition (GI): inactive

structureString: Cc1cc(C)c2c(=O)n(CN3CCN(c4ccc([N+](=O)[O-])cc4)CC3)sc2n1
growth inhibition (GI): inactive

structureString: COc1ccc(CN(Cn2sc3nc(C)cc(C)c3c2=O)Cn2sc3nc(C)cc(C)c3c2=O)cc1OC
growth inhibition (GI): inactive

structureString: Cc1cc(C)c2c(=O)n(CCOC(=O)Nc3ccccc3)sc2n1
growth inhibition (GI): inactive

With those in mind, consider the next compound.
Entry CCCCNC(=O)OCCn1sc2nc(C)cc(C)c2c1=O : reported growth inhibition (GI) = ? inactive
